The measurements presented in this section are drawn from patent US8952024B2.

Known Plant response rating, Morningglory of a selection of compounds
Tested on: morningglory (Ipomoea coccinea)
Assay: Test B pre-/postemergence plant response
Type: in vivo
Conditions: 31 g ai/ha, postemergence; scale 0 to 100, 0 is no effect, 100 is complete control
// no unit, no text: just the number

Field Plant response rating, Morningglory (entry COCC(C)n1c(-c2ccccc2)ncc(C(=O)C2=C(O)CCCC2=O)c1=O (stereo not drawn) ) reads 100

Record Cc1cc(-n2c(-c3ccccc3)ncc(C(=O)C3=C(O)CCCC3=O)c2=O)ccc1F , field Plant response rating, Morningglory: 55

CCCn1c(-c2ccc(F)cc2)ncc(C(=O)C2=C(O)CCCC2=O)c1=O has a reported Plant response rating, Morningglory of 65

Reported Plant response rating, Morningglory for CCCCc1ncc(C(=O)C2=C(O)CCCC2=O)c(=O)n1-c1ccc(C)cc1 was 80

// recorded Plant response rating, Morningglory for CC(C)n1c(-c2ccccc2)ncc(C(=O)C2=C(O)CCCC2=O)c1=O : 100

Turning to the following compound.
According to the records, this compound COCCn1c(-c2cc(F)cc(F)c2)ncc(C(=O)C2=C(O)CCCC2=O)c1=O displays Plant response rating, Morningglory of 10
